The reported measurements were obtained from paper PMC10202811.

- assay-summary: Plasma pharmacokinetics of lorlatinib at steady state (LC-MS/MS, non-compartmental analysis)
- Format: in vivo, human
- experimental-parameters: Cycle 1 Day 1; Cohort A1; 115 mg/m2 per dose; individual patients; unit assumed
measurement-kind: Tlag (h)
# unit: h | format: bare number

Find the recorded Tlag belonging to C[C@H]1Oc2cc(cnc2N)-c2c(nn(C)c2C#N)CN(C)C(=O)c2ccc(F)cc21 [Lorlatinib] and report it.
0

###

- assay-summary: Plasma pharmacokinetics of lorlatinib at steady state (LC-MS/MS, non-compartmental analysis)
- Type: in vivo, human
- experimental-parameters: human, in vivo, 115 mg/m2, Cycle 1 Day 15; Cohort A1; 115 mg/m2 per dose; individual patients; read-out: MRTINF_obs
measurement-kind: MRT inf (h)
# unit: h | format: bare number

Find the recorded MRT inf belonging to C[C@H]1Oc2cc(cnc2N)-c2c(nn(C)c2C#N)CN(C)C(=O)c2ccc(F)cc21 and report it.
15.8

###

- assay-summary: Plasma pharmacokinetics of lorlatinib at steady state (LC-MS/MS, non-compartmental analysis)
- Assay type: in vivo, human
- experimental-parameters: human, plasma, oral, 100 mg, steady state; Cohort A2; 100 mg QD; (CV); read-out: AUCtau
- Description: Lorlatinib was isolated from human plasma by a liquid-iquid extraction procedure. […] A linear-log trapezoidal method was used [NT] A best-fit method was used to estimate terminal elimination and to extrapolate any plasma concentration versus time profiles to compute [NT].
measurement-kind: AUC (ng·h/mL)
# unit: ng·h/mL | format: bare number

Find the recorded AUC belonging to C[C@H]1Oc2cc(cnc2N)-c2c(nn(C)c2C#N)CN(C)C(=O)c2ccc(F)cc21 and report it.
6790

###

- assay-summary: Plasma pharmacokinetics of lorlatinib at steady state (LC-MS/MS, non-compartmental analysis)
- Assay type: in vivo, human
- experimental-parameters: human, in vivo, 115 mg/m2, Cycle 1 Day 1, Cohort A1, 115 mg/m2 per dose
measurement-kind: MRT last (h)
# unit: h | format: bare number

Find the recorded MRT last belonging to C[C@H]1Oc2cc(cnc2N)-c2c(nn(C)c2C#N)CN(C)C(=O)c2ccc(F)cc21 and report it.
11.1

###

- assay-summary: Plasma pharmacokinetics of lorlatinib at steady state (LC-MS/MS, non-compartmental analysis)
- Format: in vivo, human
- experimental-parameters: Cycle 1 Day 15; Cohort A1; 95 mg/m2 per dose; individual patients
measurement-kind: Tlast (h)
# unit: h | format: bare number

Find the recorded Tlast belonging to C[C@H]1Oc2cc(cnc2N)-c2c(nn(C)c2C#N)CN(C)C(=O)c2ccc(F)cc21 [Lorlatinib] and report it.
24

###

- assay-summary: Plasma pharmacokinetics of lorlatinib at steady state (LC-MS/MS, non-compartmental analysis)
- Format: in vivo, human
- experimental-parameters: human, plasma, oral, 60 mg/m2, Cohort A1, 60 mg/m2 per dose, C1D15, Geometric Mean, N 3; read-out: Cmax
measurement-kind: Cmax
Output should be the measured figure followed by the unit it is expressed in.

Find the recorded Cmax belonging to C[C@H]1Oc2cc(cnc2N)-c2c(nn(C)c2C#N)CN(C)C(=O)c2ccc(F)cc21 and report it.
492 ng/mL

###

- assay-summary: Plasma pharmacokinetics of lorlatinib at steady state (LC-MS/MS, non-compartmental analysis)
- Type: in vivo, human
- experimental-parameters: Cycle 1 Day 15, Cohort A1, 115 mg/m2 per dose; unit assumed
measurement-kind: Tlag (h)
# unit: h | format: bare number

Find the recorded Tlag belonging to C[C@H]1Oc2cc(cnc2N)-c2c(nn(C)c2C#N)CN(C)C(=O)c2ccc(F)cc21 and report it.
0
